Target: T1, human corticotrophin releasing hormone receptor type 2 (CRHR2) (human, UniProt Q13324 1-411)
T1 sequence (looked up): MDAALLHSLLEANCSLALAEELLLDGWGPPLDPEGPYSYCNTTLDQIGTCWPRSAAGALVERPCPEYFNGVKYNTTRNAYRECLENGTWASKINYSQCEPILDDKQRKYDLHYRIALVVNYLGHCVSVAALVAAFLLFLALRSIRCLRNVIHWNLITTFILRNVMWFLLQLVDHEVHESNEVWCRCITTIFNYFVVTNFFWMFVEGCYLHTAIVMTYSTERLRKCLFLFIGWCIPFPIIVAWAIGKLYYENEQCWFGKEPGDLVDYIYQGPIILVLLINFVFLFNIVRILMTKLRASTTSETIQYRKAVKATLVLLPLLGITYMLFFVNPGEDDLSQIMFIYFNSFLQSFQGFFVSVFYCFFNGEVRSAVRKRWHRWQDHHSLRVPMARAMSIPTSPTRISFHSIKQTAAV
Assay: cell-based or functional assay
Where no end group is shown, it is not given here.
MEASUREMENT_KIND: pA50

Use the examples below as a reference point.
BINDER: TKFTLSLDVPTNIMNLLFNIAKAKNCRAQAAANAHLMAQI (NES-PEG (about 20 kDa) on Cys 26; C-terminal amide (-NH2)) [Pegylated Cys-variant stresscopin-like peptide with NES linker and PEG about 20 kDa SEQ ID NO: 80]
MEASUREMENT_KIND: pA50
RECORDED_RESULT: 7.6 -log10(M)

BINDER: TKFTLSLDVPTNIMNLLFNCAKAKNLRAQAAANAHLMAQI (NES-PEG (about 20 kDa) on Cys 20; C-terminal amide (-NH2)) [Pegylated Cys-variant stresscopin-like peptide with NES linker and PEG about 20 kDa SEQ ID NO: 74]
MEASUREMENT_KIND: pA50
RECORDED_RESULT: ~7.33 -log10(M)

I would be grateful if you could share the reported pA50 for TKFTLSLDVPTNIMNLLFCIAKAKNLRAQAAANAHLMAQI (NES-PEG (about 20 kDa) on Cys 19; C-terminal amide (-NH2)) [Pegylated Cys-variant stresscopin-like peptide with NES linker and PEG about 20 kDa SEQ ID NO: 73] .
8.29 -log10(M)

I would be grateful if you could share the reported pA50 for TKFTLSLDCPTNIMNLLFNIAKAKNLRAQAAANAHLMAQI-NH2 [Cys-variant stresscopin-like peptide SEQ ID NO: 10] .
8.28 -log10(M)

I would be grateful if you could share the reported pA50 for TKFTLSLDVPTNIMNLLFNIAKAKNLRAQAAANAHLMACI (NES-PEG (about 20 kDa) on Cys 39; C-terminal amide (-NH2)) [Pegylated Cys-variant stresscopin-like peptide with NES linker and PEG about 20 kDa SEQ ID NO: 93] .
8.2 -log10(M)

I would be grateful if you could share the reported pA50 for TKFTLSLDVPTNIMNLLFNIAKAKNLRAQAAANAHLMAQC-NH2 [Cys-variant stresscopin-like peptide SEQ ID NO: 41] .
7.45 -log10(M)

I would be grateful if you could share the reported pA50 for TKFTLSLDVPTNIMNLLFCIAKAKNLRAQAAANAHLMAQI-NH2 [Cys-variant stresscopin-like peptide SEQ ID NO: 20] .
9 -log10(M)

Source of measurements: patent US20110105397A1
